System Tested: Tyrosine-protein kinase Mer (Homo sapiens) (UniProt Q12866)
Stated Conditions: at 10 µM
Measured Metric: inhibition (%)

These recorded examples may help you get a feel for the data.
CCN1CCC(CC(=O)Nc2n[nH]c3nnc(-c4cccc(F)c4F)cc23)CC1
9
CCn1c(-c2nonc2N)nc2c(C#CCN)ncc(OCCCN)c21
-4
O=C1Nc2ccccc2/C1=C/Nc1ccc2[nH]c(=O)[nH]c2c1
-2
COc1ccccc1Nc1ncc(-c2ccccc2)o1
3

I = CCS(=O)(=O)c1ccc(OC)c(Nc2ncc(-c3cccc(C(C)=O)c3)o2)c1
II = NC(=O)c1sc(-n2cnc3ccccc32)cc1OCc1ccccc1Br
**Query** Sorting by inhibition in descending order, would I or II appear first? Return value: the label identifying the chosen record.
**Result** I
(I: 65%, II: 45%)

---

System Tested: Tyrosine-protein kinase Mer (Homo sapiens)
Sequence (whole entry): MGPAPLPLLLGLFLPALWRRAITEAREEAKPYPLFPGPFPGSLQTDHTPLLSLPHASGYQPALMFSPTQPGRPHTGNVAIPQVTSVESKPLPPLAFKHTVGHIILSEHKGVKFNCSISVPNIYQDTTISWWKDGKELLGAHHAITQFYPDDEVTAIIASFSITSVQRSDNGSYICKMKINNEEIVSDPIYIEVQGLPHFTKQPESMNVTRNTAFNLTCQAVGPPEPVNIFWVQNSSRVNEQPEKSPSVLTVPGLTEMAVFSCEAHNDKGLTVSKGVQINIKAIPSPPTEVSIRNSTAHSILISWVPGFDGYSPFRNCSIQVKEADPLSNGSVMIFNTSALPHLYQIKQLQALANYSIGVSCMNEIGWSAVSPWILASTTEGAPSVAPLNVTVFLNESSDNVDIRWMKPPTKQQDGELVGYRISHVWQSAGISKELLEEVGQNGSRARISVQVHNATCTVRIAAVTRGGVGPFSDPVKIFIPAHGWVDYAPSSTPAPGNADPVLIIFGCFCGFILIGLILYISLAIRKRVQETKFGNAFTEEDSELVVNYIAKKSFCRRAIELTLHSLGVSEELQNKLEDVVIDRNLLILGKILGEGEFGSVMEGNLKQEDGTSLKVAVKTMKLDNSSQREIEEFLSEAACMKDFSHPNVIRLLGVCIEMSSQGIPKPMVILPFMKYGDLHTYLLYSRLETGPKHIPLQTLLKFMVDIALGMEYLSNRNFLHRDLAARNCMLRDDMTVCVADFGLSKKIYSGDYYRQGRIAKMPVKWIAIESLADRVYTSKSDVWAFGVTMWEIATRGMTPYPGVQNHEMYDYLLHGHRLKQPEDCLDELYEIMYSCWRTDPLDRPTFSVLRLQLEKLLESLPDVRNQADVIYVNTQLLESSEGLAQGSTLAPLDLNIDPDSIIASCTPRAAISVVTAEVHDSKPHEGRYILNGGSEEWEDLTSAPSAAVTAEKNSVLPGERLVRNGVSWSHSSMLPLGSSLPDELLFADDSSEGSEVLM
Stated Conditions: at 10 µM
Measured Metric: inhibition (%)

P = NS(=O)(=O)c1ccc(N/N=C2\C(=O)Nc3cccc(CCc4ccncc4)c32)cc1
Q = Fc1ccc(-c2c(-c3ccncc3)nc3n2CCS3)cc1
**Query** Sorting by inhibition in descending order, would P or Q appear first? Return value: the label identifying the chosen record.
**Result** Q

1 = NC(=O)c1ccc(-c2nc(-c3ccccn3)c(-c3ccc4c(c3)OCO4)[nH]2)cc1
2 = COC(=O)Nc1nc2ccc(Oc3ccc(NC(=O)Nc4cccc(Cl)c4)cc3)cc2[nH]1
**Query** Identify the item whose inhibition is the smaller number: 1 or 2 Return value: the label identifying the chosen record.
**Result** 1

A = CCn1cc(-c2ccnc3[nH]ccc23)c(-c2cccc(NC(=O)Nc3ccc(OCc4ccccc4)cc3)c2)n1
B = O=C1Nc2ccccc2/C1=C1\CCc2cc(O)ccc21
**Query** Identify the item whose inhibition is the smaller number: A or B Return value: the label identifying the chosen record.
**Result** A

P = c1ccc(-c2nc3n(c2-c2ccc4c(c2)OCO4)CCC3)nc1
Q = CCCN1CCC=C(c2ccc(Nc3nc(Nc4ccccc4C(N)=O)c4cc[nH]c4n3)c(C)c2)C1
**Query** Identify the item whose inhibition is the smaller number: P or Q Return value: the label identifying the chosen record.
**Result** P
(P: -1%, Q: 10%)

---

System Tested: Tyrosine-protein kinase Mer (Homo sapiens) (UniProt Q12866)
Stated Conditions: at 10 µM
Measured Metric: inhibition (%)

These recorded examples may help you get a feel for the data.
O=C(O[C@H]1CN[C@H](C#Cc2cc3ncnc(Nc4ccc(OCc5cccc(F)c5)c(Cl)c4)c3s2)C1)N1CCOCC1
-3
CN1CCC(n2cnc(-c3ccc(F)cc3)c2-c2ccnc(NCCO)n2)CC1
-2
CCc1nn2ncccc2c1-c1ccnc(NC2CC2)n1
-4
CS(=O)(=O)CCNCc1nc(-c2ccc3ncnc(Nc4ccc(OCc5cccc(C(F)(F)F)c5)cc4)c3c2)cs1
-6
COc1cc(N2CCN(C(C)C)CC2)ccc1Nc1nc(Nc2cccc(F)c2C(=O)O)c2cc[nH]c2n1
-2
CC(C)c1ccc(Nc2nccc(-c3cnn4ncccc34)n2)cc1
32

P = Cc1ccc2c(-c3ccnc(Nc4ccc5c(c4)OCCO5)n3)c(-c3ccc(C(F)(F)F)cc3)nn2n1
Q = CC1=C(C(=O)Nc2ccc3[nH]ncc3c2)C(c2ccc(F)cc2)NC(=O)N1 (stereo unspecified)
R = CN(C)c1ccc2c(c1)/C(=C/Nc1ccc(S(N)(=O)=O)cc1)C(=O)N2
S = COc1cc(Nc2ncc3c(C)nc(-c4cccc(C(F)(F)F)c4)n3n2)cc(OC)c1OC
**Query** Sort the 4 molecules by inhibition; largest first, smallest last. Show the ranking through the labels, in the order asked for.
**Result** S, R, Q, P

---

System Tested: Tyrosine-protein kinase Mer (Homo sapiens) (UniProt Q12866)
Stated Conditions: at 10 µM
Measured Metric: inhibition (%)

A = Cc1ccc2c(-c3ccnc(Nc4cccc(C(F)(F)F)c4)n3)c(-c3ccccc3)nn2n1
B = CCn1c(-c2nonc2N)nc2cncc(C(=O)N3CC[C@H](N)C3)c21
**Query** Identify the item whose inhibition is the smaller number: A or B Return value: the label identifying the chosen record.
**Result** A
(A: 4%, B: 6%)

a = CCCN1CCC(c2ccc(Nc3nc(Nc4cc(F)ccc4C(N)=O)c4cc[nH]c4n3)c(OC)c2)CC1
b = CS(=O)(=O)Nc1ccc(-c2ccc3c(NC(=O)C4CC4)n[nH]c3c2)cc1
c = CC(C)c1ccc2c(c1)NC(=O)/C2=N/Nc1ccc(S(N)(=O)=O)cc1
**Query** Sort low-to-high on inhibition, please. Show the ranking through the labels, in the order asked for.
**Result** c, b, a
(c: -10%, b: 1%, a: 5%)

A = COc1ccc(-c2nn3ncccc3c2-c2ccnc(Nc3cccc(C(F)(F)F)c3)n2)cc1
B = COc1ccc(-c2nn3ncccc3c2-c2ccnc(Nc3ccc(F)c(F)c3)n2)cc1
**Query** Sorting by inhibition in descending order, would A or B appear first? Return value: the label identifying the chosen record.
**Result** A

---

System Tested: UniProtKB Q12866
Stated Conditions: at 10 µM
Measured Metric: inhibition (%)

These recorded examples may help you get a feel for the data.
NS(=O)(=O)c1cccc(-c2ccc3c(NC(=O)C4CC4)n[nH]c3c2)c1
-7
COc1ccc(-c2ccc3c(NC(=O)C4CC4)n[nH]c3n2)cc1
-5
N#Cc1c(NC(=O)c2ccc(F)cc2)sc2c1CCCC2
1

a = COc1ccc(COc2ccc(Cc3cnc(N)nc3N)cc2OC)cc1
b = COc1cc2ncn(-c3cc(OCc4ccccc4C(F)(F)F)c(C(=O)N(C)C)s3)c2cc1OC
**Query** Identify the item whose inhibition is the smaller number: a or b Return value: the label identifying the chosen record.
**Result** b
(b: -10%, a: 5%)

A = COc1cc2ncn(-c3cc(O[C@H](C)c4ccccc4Cl)c(C(N)=O)s3)c2cc1OC
B = COc1cc2ncn(-c3cc(OCc4ccccc4S(C)(=O)=O)c(C#N)s3)c2cc1OC
C = COc1cc(C=NNc2ncnc3c2cnn3Cc2ccccc2)ccc1O
**Query** Sort low-to-high on inhibition, please. Show the ranking through the labels, in the order asked for.
**Result** A, B, C
(A: -8%, B: 2%, C: 5%)

A = COC(=O)c1cncc(/C=C/c2c(C)cc(O)cc2C)c1
B = COc1cc2c(cc1Nc1nc(N3CCc4ccccc43)c3cc[nH]c3n1)N(C(=O)CN(C)C)CC2
C = CNC(=O)c1cncc(/C=C/c2c(C)cccc2C)c1
D = COc1cccc(-n2ncc3c(N/N=C/c4ccncc4)ncnc32)c1
E = NS(=O)(=O)c1ccc(Nc2cc(-c3cccc(O)c3)n[nH]2)cc1
**Query** Sort low-to-high on inhibition, please. Show the ranking through the labels, in the order asked for.
**Result** A, C, E, B, D
